Test system: COX-2 in stimulated DRGs
Assay type: cell-based, mouse
Conditions: read-out: IC50 for inhibition of 2-AG oxidation in DRGs
VALUE TYPE: pIC50
Answer as the number alone; pIC50 is minus log10 of concentration in mol/L.

Give pIC50 for the following molecule: C[C@@H](C(=O)O)c1ccc(-c2ccccc2)c(F)c1 [(R)-flurbiprofen]
5.24
